The measurements presented in this section are drawn from PubChem BioAssay.

- Assay procedure: FRG1 expression reporter modulators in myotubes – cell-based, C2C12 myotubes, firefly/Renilla luciferase, luminescence, FRG1 inhibition for FSHD, primary screen (AID 1084)
- Condition set: FRG1 promoter luciferase, higher = more signal, called active from +8 up or from −8 down
// not fulfilled strictly below 0.4 in z-score; fulfilled otherwise

Solved entries:
{"Compound": "CC(C)(C)OC(=O)CC[C@@]1(C(N)=O)N=C(c2ccc(OCCCO)cc2)O[C@@H]1c1ccccc1N=[N+]=[N-]", "Qualitative label": "fulfilled"}
{"Compound": "C=CC[C@@]1(C(=O)OC)N=C(c2ccc(OCCCO)cc2)O[C@@H]1c1ccccc1CN=[N+]=[N-]", "Qualitative label": "not fulfilled"}
{"Compound": "COC(=O)[C@@]1(Cc2ccccc2)[C@H]2c3cc(C(=O)N(C)C)n(Cc4cc(F)c(F)c(F)c4)c3C[C@H]2CN1C(=O)c1ccccc1", "Qualitative label": "fulfilled"}
{"Compound": "CN1C(=O)C2C=CC(C(O)C=Cc3ccc([N+](=O)[O-])cc3)N(N3CCCCC3)C2C1=O (configuration not stated)", "Qualitative label": "fulfilled"}
{"Compound": "COc1ccc([Si](C)(C)[C@H]2[C@H](CC(=O)N3CCC[C@H]3CO)O[C@@]3(C(=O)N(Cc4cccc(N5CCC5=O)c4)c4ccccc43)[C@@H]2C)cc1", "Qualitative label": "not fulfilled"}
{"Compound": "COc1ccc(C(=O)Nc2cccc(CN3C(=O)[C@@]4(O[C@@H](CC(=O)N5Cc6ccccc6C[C@H]5CO)[C@H]([Si](C)(C)c5ccc(OC)cc5)[C@H]4C)c4ccccc43)c2)cc1", "Qualitative label": "not fulfilled"}

Quick check, z-score >= 0.4? COc1ccc(C#Cc2ccc3c(c2)[C@]2(C(=O)N3)[C@H](C(=O)N3CCN(c4ncccn4)CC3)[C@H]3C(=O)O[C@H](c4ccccc4)[C@H](c4ccccc4)N3[C@@H]2c2ccc(O)cc2)cc1
fulfilled

###

- Tested system: Torsin-1A (Homo sapiens)
- Assay procedure: TOR1A wild-type binding on microarray – cell lysate, small-molecule microarray, lysate, 635/667 nm, primary screen (AID 1149)
- Condition set: COS7 hTOR1A-WT lysate, 635 nm fluorescence, higher = more signal
Assay endpoint: composite z-score
Give bare numbers.

Below are worked cases with known answers.
{"Molecule": "C=CCC(OC(C)=O)[C@@H]1[C@@H](N(Cc2cc3ccccc3o2)C(=O)c2ccc(-c3ccccc3)cc2)c2cc(OCCCO)ccc2N1C(=O)Cc1ccc2ccccc2c1 (some centres undefined)", "composite z-score": -0.635}
{"Molecule": "C=C(C(=O)CC[C@H](OC(=O)c1cccnc1)c1ccccc1OCCO)C(C)C", "composite z-score": 2.32}
{"Molecule": "CCN(CC)c1ccc(N2CC=CC34O[C@@H]5C=CCOC(=O)[C@@H]5[C@H]3C(=O)N(CCCCCO)[C@@H]4C2=O)cc1 (some centres undefined)", "composite z-score": 1.03}
{"Molecule": "Cc1ccc(S[C@]2(C(=O)NCC(C)C)CC(=O)N(Cc3ccccc3)[C@@H]2c2ccc(CO)cc2)cc1", "composite z-score": -0.258}

Parameters: items (list). Returns: composite z-score for each item.
1. Cc1ccc(N2C(=O)c3ccccc3[C@](C)(C(=O)NCCN3CCOCC3)[C@@H]2c2ccc(CO)cc2)nc1
2. C=CCC(OC(C)=O)[C@@H]1[C@@H](N(Cc2cc3ccccc3o2)C(=O)c2cccc3ccccc23)c2cc(OCCCO)ccc2N1C(=O)Cc1ccc2ccccc2c1 (some centres undefined)
3. COC(=O)[C@@]1(Cc2ccc(F)cc2)[C@H]2c3cc(C(=O)N(C)C)n(Cc4ccccn4)c3C[C@H]2CN1C(=O)c1ccccc1
4. COC(=O)[C@@]1(Cc2ccc(OC)cc2)[C@H]2c3cc(C(=O)N4CCCC4)n(CCN4CCOCC4)c3C[C@H]2CN1C(=O)c1ccccc1
5. CCOC(=O)C1=CC[C@@H](c2cccc(Cl)c2)N(S(=O)(=O)c2ccc(C)cc2)[C@H]1c1ccc(C#N)cc1
6. CC(C)NC(=O)[C@@]1(c2ccc([N+](=O)[O-])cc2)CC(=O)N(C(C)C)[C@@H]1c1ccc(CO)cc1
7. CC(=O)NCCCC[C@@H]1NC(=O)[C@@H]2C[C@H](C(=O)NCCCCCC[N+](C)(C)C)[C@H](c3cccc(OCCO)c3)N2C1=O
8. CCOC(=O)C[C@H]1[C@H](OC(=O)c2ccc(C(=O)c3ccccc3)cc2)[C@@H](NC(=O)c2ccc3ccccc3n2)c2cc(OCCCO)ccc2N1C(=O)c1ccc2ccccc2n1

[-2.51, -0.213, 1.17, 0.27, 0.384, 0.592, 0.964, 0.323]

Here are 4 molecules. What values of composite z-score were reported for them?
1. CCN(CC)c1ccc(N2CC=CC34O[C@@H]5/C=C\CCC(C)OC(=O)C5[C@H]3C(=O)N(CCCCCCO)[C@@H]4C2=O)cc1 (some centres undefined)
2. CN1C(=O)C2C=CC(C(O)c3ccc(Br)cc3)N(Nc3ccccc3)C2C1=O (centres undefined)
3. CC(C)[Si]1(C(C)C)O[C@@H](c2ccccc2)c2cc(-c3ccc(-c4ccc(Cl)c(Cl)c4)o3)nc(CCc3ccccc3)c21
4. CN(C)CCCCCCNC(=O)[C@@H]1C[C@@H]2C(=O)N[C@@H](Cc3ccccc3)C(=O)N2[C@@H]1c1cccc(OCCO)c1

[0.84, 0.24, -0.555, 1.15]

Hi team, please reply with composite z-score for each item in this list.
1. COc1c(C)cc(-c2cc3c(c(-c4ccccc4)n2)[Si](C(C)C)(C(C)C)O[C@H]3c2ccccc2)cc1C
2. COCCOC(=O)N1C(=O)[C@@]2(c3ccccc31)[C@H](c1ccc(O)cc1)N1[C@H](c3ccccc3)[C@H](c3ccccc3)OC(=O)[C@H]1[C@@H]2C(N)=O
3. COc1cc2c(cc1O)C(c1ccc(CN3CCCC3)cc1)N(Cc1sc3ccccc3c1Cl)CC2 (centres undefined)
4. COc1ccc([Si](C)(C)[C@@H]2[C@@H](CCO)O[C@]3(C(=O)N(Cc4ccccc4)c4ccc(N(C=O)c5ccccc5)cc43)[C@H]2C)cc1
5. COCCOC(=O)N1C(=O)[C@@]2(c3cc(C#CC4=CCCCC4)ccc31)[C@H](C(=O)N1CCN(c3ncccn3)CC1)[C@H]1C(=O)O[C@H](c3ccccc3)[C@H](c3ccccc3)N1[C@@H]2c1ccc(OCCO)cc1

[-0.381, -1.04, 0.834, 0.353, 0.804]

###

- Assay procedure: compound effects on differentiated 3T3-L1 adipocyte viability – cell-based, 3T3-L1 adipocytes, calcein-AM fluorescence, 48 h, basal, profiling panel (AID 1163); note: test concentration not given here
- Condition set: 3T3-L1 adipocytes viability, higher = more signal
Assay endpoint: z-score
Answers are plain numbers.

Some compounds with known z-score results, for comparison:
{"Mol smiles": "C=C[C@H](C)[C@H](OC(=O)Nc1ccc(OC)cc1)c1ccc(O)c2ccccc12", "Test value": 0.256}
{"Mol smiles": "COC(=O)[C@@]1(Cc2ccccc2)[C@H]2c3cc(C(=O)N(C)C)n(Cc4ccccc4)c3C[C@H]2CN1C(=O)c1ccccc1", "Test value": -0.93}

Return reported z-score values for all items listed beneath this line.
1. C=CCN1C(=O)[C@@]2(O[C@@H](CCO)[C@H]([Si](C)(C)c3ccc(OC)cc3)[C@H]2C)c2cc(NC(C)=O)ccc21
2. COC(=O)[C@@]1(Cc2ccc(OC)cc2)[C@H]2c3cc(C(=O)N(C)C)n(Cc4ccc(OC)c(OC)c4)c3C[C@H]2CN1C(=O)c1ccccc1

1: -0.213; 2: -0.204

###

- Assay procedure: plasmodial surface anion channel blockers, osmotic lysis – cell-based, P. falciparum Indochina, OD700, 1 h, primary screen (AID 1154)
- Condition set: P. falciparum Indochina infected RBC osmotic lysis, higher = more signal, called active from +8 up or from −8 down
Outcome label depends on z-score relative to 2: at/above gives 1.0, below gives 0.0.

# check: z-score of CC1CC/C=C\[C@H]2OC34C=CCN(CCN5CCOCC5)C(=O)[C@H]3N(CCCCCO)C(=O)[C@@H]4C2C(=O)O1 (some centres not stated) is greater than or equal to 2
0.0

API: above_or_equal(metric=z-score, cutoff=2) for item CN(C)CCCCCCNC(=O)[C@@H]1C[C@@H]2C(=O)NCC(=O)N2[C@@H]1c1cccc(OCCO)c1
1.0

Confirm if z-score reported for the compound COc1ccc(C#Cc2ccc3c(c2)[C@]2(C(=O)N3)[C@H](c3ccc(OCCO)cc3)N3[C@H](c4ccccc4)[C@H](c4ccccc4)OC(=O)[C@H]3[C@@H]2C(=O)Nc2nc3ccccc3s2)cc1 is 2 or above.
1.0

Determine whether this compound has z-score no lower than 2: O=C1C2C=CC(C(O)c3ccc(-c4ccccc4)s3)N(Nc3ccccc3F)C2C(=O)N1c1ccccc1 (configuration not stated)
1.0

###

- Tested system: Torsin-1A-interacting protein 1 (Homo sapiens)
- Assay procedure: compound microarray binding of lysate hLAP1 – cell lysate, small-molecule microarray, COS7 lysate, 635/667 nm fluorescence, primary screen (AID 1116)
- Condition set: 635 nm fluorescence, higher = more signal
Output Yes for composite z-score not less than 0.8; output No otherwise.

Use the examples below as a reference point.
{"Mol smiles": "CC(C)C(=C=CC[C@H](O)c1ccccc1OCCO)CCO", "Qualitative label": "Yes"}
{"Mol smiles": "COC(=O)[C@@]1(Cc2ccc(F)cc2)[C@H]2c3cc(C(=O)N4CCCC4)n(Cc4ccc(Cl)c(C(F)(F)F)c4)c3C[C@H]2CN1C(=O)c1ccccc1", "Qualitative label": "Yes"}
{"Mol smiles": "Cc1ccc(N2C(=O)c3ccccc3[C@](C)(C(=O)NCCN3CCOCC3)[C@@H]2c2ccc(CO)cc2)nc1", "Qualitative label": "No"}
{"Mol smiles": "CCCC[C@@H]1C[C@H]1[C@@H](NC(=O)c1ccco1)c1ccccc1", "Qualitative label": "No"}
{"Mol smiles": "COCCOC(=O)N1C(=O)[C@@]2(c3cc(C#CCCO)ccc31)[C@H](c1ccc(O)cc1)N1[C@H](c3ccccc3)[C@H](c3ccccc3)OC(=O)[C@H]1[C@@H]2C(=O)N1CCCCCCC1", "Qualitative label": "Yes"}

Item C=C(C(=O)CC[C@@H](OC(=O)c1cccnc1)c1ccc(CO)o1)C(C)C with composite z-score of 0.8 or above?
Yes

Given CC(C)[Si]1(C(C)C)O[C@@H](c2ccccc2)c2cc(-c3ccc(-c4ccc(Cl)c(Cl)c4)o3)nc(CCc3ccccc3)c21 , state whether its composite z-score is at least 0.8.
No

Quick check: does C=CCNC(=O)[C@H]1[C@@H]2C(=O)O[C@@H](c3ccccc3)[C@@H](c3ccccc3)N2[C@@H](c2ccc(O)cc2)[C@]12C(=O)Nc1ccc(C#Cc3ccc(OC)cc3)cc12 have composite z-score greater than or equal to 0.8?
Yes

Does C=CCOC(=O)[C@@H]1[C@H]2C(=O)O[C@H](c3ccccc3)[C@H](c3ccccc3)N2[C@H](c2ccc(OCCOC(=O)[C@H]3C[C@H]4C(=O)N[C@@H](CC(C)C)C(=O)N4[C@H]3c3cccc(OCCO)c3)cc2)[C@@]12C(=O)Nc1ccc(I)cc12 have a reported composite z-score of at least 0.8?
Yes

# check: composite z-score of Cc1ccc(N2C(=O)c3ccccc3[C@@H](C(=O)NCC(C)C)[C@@H]2c2ccc(CO)cc2)nc1 is greater than or equal to 0.8
No

Would you say COCCOC(=O)N1C(=O)[C@@]2(c3cc(C#Cc4ccc(OC)cc4)ccc31)[C@H](c1ccc(O)cc1)N1[C@H](c3ccccc3)[C@H](c3ccccc3)OC(=O)[C@H]1[C@@H]2C(=O)N1CCN(c2ncccn2)CC1 shows composite z-score at minimum 0.8?
No

Reported composite z-score reaches at least 0.8 for O=C1O[C@@H](c2ccccc2)[C@@H](c2ccccc2)N2[C@@H](c3ccc(O)cc3)[C@]3(C(=O)Nc4ccccc43)[C@@H](C(=O)NC[C@H](O)c3ccccc3)[C@H]12 ?
No
